# System: antibodies in sera from SARS patients (sera 1a, 1b, 2, 6, 37, 62, London, SARS-yellow, SARS-green)
# Assay type: binding, human
Tick criterion met if Binding of serum 6 to looped/cyclic peptides of protein X5 of SARS-CoV Urbani is 0.4 or greater. Tick criterion not met if Binding of serum 6 to looped/cyclic peptides of protein X5 of SARS-CoV Urbani is less than 0.4.

Exercise: Dear colleague, could you confirm whether ALIARCWYLHEGHQT has Binding of serum 6 to looped/cyclic peptides of protein X5 of SARS-CoV Urbani at or above 0.4?
Key: criterion not met

Exercise: One more sequence: LIARCWYLHEGHQTA
Key: criterion not met

Exercise: One more sequence: AGGALIARCWYLHEG
Key: criterion met

Exercise: One more sequence: AAFRDVLVVLNKRTN
Key: criterion met
